Please go through the items and note down their reverse-splicing fitness.
B1: Azoarcus group I ribozyme (parent)
chain: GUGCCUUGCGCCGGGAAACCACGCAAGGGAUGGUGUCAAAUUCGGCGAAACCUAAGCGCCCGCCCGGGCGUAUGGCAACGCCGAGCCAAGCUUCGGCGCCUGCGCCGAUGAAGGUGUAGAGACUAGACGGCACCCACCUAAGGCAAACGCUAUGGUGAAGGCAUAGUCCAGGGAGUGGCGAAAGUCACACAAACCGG

Variants of: B1
procedure-details: reverse-splicing fitness (ratio to wild type); higher = more active; in vitro selection; Mg2+ level not given
Returns: the value as a bare number; no unit string appended.

INPUT: Name the recorded reverse-splicing fitness for C82G A111G A120U A145C C169A U176G .
OUTPUT: 0.00182

INPUT: Entry to check: A111G A145C C150G U176C
OUTPUT: 0.212

INPUT: // same read-out, input: C82A A111C A120G C150G C169G
OUTPUT: 0.00748

INPUT: Also C82G A120U C150G U176C , if possible.
OUTPUT: 0.0103

INPUT: Check C82G A111U A145G C169U U176A too.
OUTPUT: 0.0134

INPUT: And for C82U A111G A120U A145U C150U C169G U176A ?
OUTPUT: 0.0026

INPUT: Next entry: C82G A120U A145U U176G
OUTPUT: 0.02

INPUT: What would you report for C82U A111C A120G A145C C150A C169U U176G ?
OUTPUT: 0.00441

INPUT: Thanks! And C82U A111G C150A ?
OUTPUT: 0.0385

INPUT: Item: C82G A111U A120U C169U U176C
OUTPUT: 0.00393

INPUT: Then this variant: C82U A111C A120U A145G U176A
OUTPUT: 0.00722

INPUT: Now this one: C82U A111G A120U A145C C150U
OUTPUT: 0.011

INPUT: Now give it for C82G A120G C150U U176G too.
OUTPUT: 0.0083

INPUT: Try the variant A120G A145C C150A C169U U176C
OUTPUT: 0.0294

INPUT: Also A111U C150G C169G U176G ?
OUTPUT: 0.00515

INPUT: Another variant to check: C82G A111U A120U A145C C150G
OUTPUT: 0.00763

INPUT: Same question for C82G A111U A120G A145U C169U U176C please.
OUTPUT: 0.0158

INPUT: C82G A111G A120U A145G C150U C169A U176G , same question.
OUTPUT: 0.00254

INPUT: Moving on to the next variant: A111G A120G A145U C150A U176A
OUTPUT: 0.0179

INPUT: Also need C82A A111G A120G A145U C150A C169U U176A , thanks.
OUTPUT: 0.0222

INPUT: Another variant to check: C82U A111U A145U C150A C169G
OUTPUT: 0.00727

INPUT: Would you kindly repeat that for C82A A111U A120C C169G ?
OUTPUT: 0.00957

INPUT: Likewise for C82U A111G C150A C169G ?
OUTPUT: 0.00918

INPUT: Would you kindly repeat that for C82U A111C A120C A145C C150A U176A ?
OUTPUT: 0.00991

INPUT: Repeat for the following variant: A111U A120U A145U C150U C169U U176G
OUTPUT: 0.00253

INPUT: Follow-up entry: A120G A145U C150G C169A U176C
OUTPUT: 0.0317

INPUT: Again, but for C82G A111C A120C A145U C150U C169G U176A
OUTPUT: 0.0133

INPUT: Follow-up entry: C82G A120C A145C C150A C169G
OUTPUT: 0.00715

INPUT: Thanks! And A120U U176G ?
OUTPUT: 0.421

INPUT: For C82U A111G A120C A145C C150A C169U U176A then?
OUTPUT: 0.0146

INPUT: Queued: C82A A111U A120G A145U C150A C169A U176C
OUTPUT: 0.0119

INPUT: What do we get for C82U A111C A120C C150G U176C ?
OUTPUT: 0.00787

INPUT: Then what about the variant A111C A120G U176A ?
OUTPUT: 0.0401

INPUT: Also C82U A111G A145U C150G C169U U176C , if possible.
OUTPUT: 0.0112

INPUT: # iterate: A111U A120U A145G C169A U176C
OUTPUT: 0.00376

INPUT: // same read-out, input: C82A A120U A145G C150U C169G U176C
OUTPUT: 0.0042

INPUT: Follow-up entry: A120U C150G C169G U176A
OUTPUT: 0.00487

INPUT: Same question, C82U A111G A120C A145G C169A U176A this time
OUTPUT: 0.0153

INPUT: Further, for C82A A111G A120C A145U U176C ?
OUTPUT: 0.0247

INPUT: C82U A111G A120G A145U C150G C169A U176G ?
OUTPUT: 0.00391
